Sourced from patent EP2857388A1

target: human B1R (Homo sapiens); construct: expressed in transfected cells; host or cells: CHO K1 cells (Chinese Hamster Ovary), stably transfected; assay: Functional assay at bradykinin receptor 1 (B1R): Ca2+ fluorescence (Fluo-4) in FLIPR/Novostar, antagonist mode; type: cell-based; details: test substance 10 µM; CHO K1 cells stably transfected with human B1R gene (hB1R-Zellen); agonist Lys-Des-Arg9-Bradykinin at EC80; % inhibition relative to maximal achievable inhibition; read-out: % Inhibierung (human B1R) bei 10 µM
experimental_readout: inhibition at 10 µM (%)

a. COc1cc(C)c(S(=O)(=O)Cc2c(C)nn(CC(=O)NC3CCC(N4CCCC4)CC3)c2C)c(C)c1 (centres unmarked)
b. COc1cc(C)c(S(=O)(=O)Cc2cc(C)n(CC(=O)NC3CCC(c4ccncc4)CC3(C)C)n2)c(C)c1 (centres unmarked)
Hey, which is lower on measured inhibition at 10 µM, a or b ? Refer to your chosen entry by its label in the reply.
b

A. COc1cc(C)c(S(=O)(=O)Cc2cn(CC(=O)NC3CCC(NC4CC4)CC3(C)C)nn2)c(C)c1 (centres unmarked)
B. COCCN1CCC(NC(=O)Cn2nc(CS(=O)(=O)c3c(C)cc(OC)cc3C)cc2C)C(C)(C)C1 (centres unmarked)
Would you let me know which has the greater inhibition at 10 µM value, A or B ? Refer to your chosen entry by its label in the reply.
A

====

Target: human B1R (Homo sapiens, UniProt P46663)
Construct: expressed in transfected cells; host or cells: CHO K1 cells (Chinese Hamster Ovary), stably transfected
Sequence (P46663 whole entry): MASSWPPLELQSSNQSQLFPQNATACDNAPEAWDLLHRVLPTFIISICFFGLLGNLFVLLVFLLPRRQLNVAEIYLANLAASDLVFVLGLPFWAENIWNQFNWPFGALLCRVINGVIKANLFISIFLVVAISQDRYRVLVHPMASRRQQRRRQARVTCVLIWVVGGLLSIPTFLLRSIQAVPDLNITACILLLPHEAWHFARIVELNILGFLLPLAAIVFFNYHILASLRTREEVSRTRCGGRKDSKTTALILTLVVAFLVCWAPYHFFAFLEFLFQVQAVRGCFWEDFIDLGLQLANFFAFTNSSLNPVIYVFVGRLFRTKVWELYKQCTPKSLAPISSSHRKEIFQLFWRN
Test: Functional assay at bradykinin receptor 1 (B1R): Ca2+ fluorescence (Fluo-4) in FLIPR/Novostar, antagonist mode
Assay type: cell-based
Conditions: test substance 10 µM; CHO K1 cells stably transfected with human B1R gene (hB1R-Zellen); agonist Lys-Des-Arg9-Bradykinin at EC80; % inhibition relative to maximal achievable inhibition; read-out: % Inhibierung (human B1R) bei 10 µM
Procedure: Die agonistische bzw. antagonistische Wirkung von Substanzen kann am Bradykinin Rezeptor 1 (B1R) der Spezies Mensch und Ratte mit ektopisch exprimierenden Zelllinien (CHO K1 Zellen) und mit Hilfe eines Ca^2+-sensitiven Farbstoffs (Fluo-4) im Fluorescent Imaging Plate Reader (FLIPR) quantifiziert werden. Die Angabe in % Aktivierung wird bezogen auf das Ca^2+-Signal nach Zugabe von Lys-Des-Arg^9-Bradykinin ([…]), bzw. Des-Arg^9-Bradykinin (100 nM). […]
experimental_readout: inhibition at 10 µM (%)

Some entries whose results are on file:
COc1cc(C)c(S(=O)(=O)Cc2cc(C)n(CC(=O)NC3CCC(N(C)C)CC3)n2)c(C)c1 (stereo not shown) : 80
COc1cc(C)c(S(=O)(=O)Cc2c(C)nn(CC(=O)NC3CCC(N4CCCC4)CC3(C)C)c2C)c(C)c1 (stereo not shown) : 99
Cc1cccc(Cl)c1S(=O)(=O)Cc1noc(C(=O)N(C)[C@H]2CCC[C@@H](N3CCN(C)CC3)C2)n1 : 99
COc1cc(C)c(S(=O)(=O)Cc2cn(CC(=O)NC3CCC(N4CCCC4)CC3(C)C)nn2)c(C)c1 (stereo not shown) : 100

1. COc1cc(C)c(S(=O)(=O)Cc2noc(C(=O)N3CCC4(CC3)CCN(c3ccncc3)C4)n2)c(C)c1
2. Cc1cc(S(=O)(=O)Cc2noc(CC(=O)NC3CCNCC3(C)C)n2)c(C)cc1Cl (stereo not shown)
Would you let me know which has the greater inhibition at 10 µM value, 1 or 2 ? Refer to your chosen entry by its label in the reply.
1
(1: 100%, 2: 54%)
